assay: cAMP Responsive Elements (CRE) small molecule antagonists, cell-based qHTS assay: qHTS cell viability counter screen (AID 2060913); conditions: CRE-bla HEK293T viability, CellTiter-Glo luminescence, 5 h; series mostly up to 92.4 µM; also: % is scaled to controls: 0 for no effect and ±100 for the full control effect; nearly all actives have a fitted effect of over 40% in size
Inconclusive results are not listed. Activity calls are given as the source filed them. Calls follow the shape of the dose curve; as a rule, active = well fitted cell-killing curve with a large enough effect in the repeat runs; inconclusive = weak or mixed curves, or effect the other way; inactive = flat fitted curve, though single readings scatter.
measured.property: viability change, negative = cytotoxic

Some compounds with recorded viability change, negative = cytotoxic:
{"columns": ["compound", "viability change, negative = cytotoxic"],
 "data": [
  ["CCC(C)C1N=C(C)C(C)S1 (configuration not stated)", "inactive"],
  ["COc1ccc(N)c(C)c1", "inactive"],
  ["NC(N)=NCCN1CCCCCCC1", "0.247% [at 0.349 µM] (inactive)"],
  ["c1ccc2[nH]cnc2c1", "inactive"],
  ["O=C(O)COC(=O)Cc1ccccc1Nc1c(Cl)cccc1Cl", "inactive"]
]}

Task item: Param item = "OC1CCCC1" ; retrieve measured viability change, negative = cytotoxic.
Reply: inactive

Task item: Let us now turn to "O=C(O)Cc1ccc(OCCNC[C@H](O)c2ccccc2)cc1"
Reply: inactive

Task item: For "Nc1cc(Cl)c(N)c(Cl)c1" then?
Reply: inactive

Task item: And the next one, "CNCCS(=O)(=O)O" ?
Reply: inactive

Task item: Try this compound next: "CC(C)CCCCCOC(=O)CCS"
Reply: inactive
